Source of measurements: PubChem BioAssay (NCI)

system: COLO 205 colon; test: NCI-60 one-dose screen, 48 h (100 = growth as untreated, 0 = no growth, -100 = all killed); details: 10 µM unless noted
About 83,000 compounds went through this panel and 20% of them were active in at least one assay; those are over-represented in the sample as a whole.

- Compound: "COc1ccc(CN(c2ccc(C)cc2)C2OC(=O)c3ccccc32)cc1OC (centres undefined)"
  growth, %: 138
- Compound: "COc1ccc(-n2c(C)nc3c(c(C)nn3-c3ccccc3)c2=O)cc1"
  growth, %: -45.6
- Compound: "COc1ccc(/C(=C/c2ccc3ccccc3c2)c2nn[nH]n2)cc1OC"
  growth, %: -2.4
- Compound: "CN1CCN(c2ccc3nc(-c4ccc5nc(-c6ccc(OCCC(C)(C)C)cc6)[nH]c5c4)[nH]c3c2)CC1"
  growth, %: 5.08
- Compound: "CCOC(=O)N1CCN(c2nc(Nc3cc(C)[nH]n3)c3ccccc3n2)CC1"
  growth, %: 14
- Compound: "CN(C)CC(=O)Nc1ccc(Cn2nnc3c2C(=O)c2nnn(Cc4ccc(NC(=O)CN(C)C)cc4)c2C3=O)cc1"
  growth, %: -80.4
- Compound: "OCCNCCNc1c2ccccc2nc2ccccc12"
  growth, %: 47.9
- Compound: "O=C(NCc1cccc(C(F)(F)F)c1)[C@H](CCC(=O)N1CCN(C2CCCCC2)CC1)N1C(=O)[C@@H](N2C(=O)OC[C@@H]2c2ccccc2)[C@H]1/C(Cl)=C/c1ccccc1"
  growth, %: 40.7
- Compound: "Cn1cc(-c2csc(-c3cn(C)c4ncccc34)n2)c2ccccc21"
  growth, %: -7.52
